Listing of entries alongside the reported fractional viability.
# Tested on: U2OS
# experiment: fractional viability (live cells / total cells); higher = less cell death
# applied.conditions: 1 µM; 72 h
measurement.kind: fractional viability

COc1cc2c(Oc3ccc(NC(=O)C4(C(=O)Nc5ccc(F)cc5)CC4)cc3F)ccnc2cc1OCCCN1CCOCC1 [Foretinib]: 0.553
CC[C@@]1(O)C(=O)OCc2c1cc1n(c2=O)Cc2cc3ccccc3nc2-1 [Camptothecin]: 0.448
O=C(Nc1ccc([N+](=O)[O-])cc1Cl)c1cc(Cl)ccc1O [Nicolsamide]: 0.33
COC1CCN(C(=O)c2cc(Cc3n[nH]c(=O)c4ccccc34)ccc2F)CC1 [AZD2461]: 0.972
CC(=O)c1c(C)c2cnc(Nc3ccc(N4CCNCC4)cn3)nc2n(C2CCCC2)c1=O [Palbociclib]: 0.987
CC1(C)CCC(c2ccc(Cl)cc2)=C(CN2CCN(c3ccc(C(=O)NS(=O)(=O)c4ccc(N[C@H](CCN5CCOCC5)CSc5ccccc5)c(S(=O)(=O)C(F)(F)F)c4)cc3)CC2)C1 [Navitoclax]: 0.978
COC(=O)c1ccc([C@H]2c3[nH]c4ccccc4c3C[C@H](C(=O)OC)N2C(=O)CCl)cc1 [RSL3]: 0.956

###

# System: U2OS
# experiment: normalized growth rate inhibition value (GR) relative to untreated cells (GR value (dimensionless, 1 = untreated growth)); higher = less growth inhibition
# applied.conditions: 0.0316 µM; 72 h
Would you please tag the item criterion met when its normalized growth rate inhibition value is 0.9 or above, and criterion not met when it is below?

Cc1cc2c(C(=O)NC[C@H](C)c3ccccc3)c(O)c(O)cc2c(O)c1-c1c(C)cc2c(C(=O)NC[C@H](C)c3ccccc3)c(O)c(O)cc2c1O [Sabutoclax]: criterion met
Cc1cc(Nc2ccc(NC(=O)c3ccc(Nc4ccnc5ccccc45)cc3)cc2)nc(N)n1 [SGI-1027]: criterion met
CC[C@@]1(O)C(=O)OCc2c1cc1n(c2=O)Cc2cc3ccccc3nc2-1 [Camptothecin]: criterion not met
Cn1nnc2c(C(N)=O)ncn2c1=O [Temozolamide]: criterion met
CC[C@@H](C(=O)[C@@H](C)[C@@H](O)[C@H](C)[C@@H]1O[C@@H]([C@@H](CC)C(=O)O)CC[C@@H]1C)[C@H]1O[C@]2(C=C[C@@H](O)[C@]3(CC[C@@](C)([C@H]4CC[C@](O)(CC)[C@H](C)O4)O3)O2)[C@H](C)C[C@@H]1C [Salinomycin]: criterion met
CNC(=O)c1ccccc1Sc1ccc2c(/C=C/c3ccccn3)n[nH]c2c1 [Axitinib]: criterion met
O=C(/C=C/c1cccc(S(=O)(=O)Nc2ccccc2)c1)NO [Belinostat]: criterion met
CC[C@@H]1C(=O)N(C)c2cnc(Nc3ccc(C(=O)NC4CCN(C)CC4)cc3OC)nc2N1C1CCCC1 [BI2536]: criterion not met
COc1cc2nccc(Oc3ccc(NC(=O)Nc4cc(C)on4)c(Cl)c3)c2cc1OC [Tivozanib]: criterion met

###

Listing of entries alongside the reported drug GRADE.
# Tested on: U2OS
# experiment: drug GRADE (percent of response due to cell death) (% (0-100)); higher = more death-driven response
# applied.conditions: 72 h
measurement.kind: drug GRADE

CCNC(=O)c1noc(-c2cc(C(C)C)c(O)cc2O)c1-c1ccc(CN2CCOCC2)cc1 [Luminespib]: 17.6
Cc1cc2c(C(=O)NC[C@H](C)c3ccccc3)c(O)c(O)cc2c(O)c1-c1c(C)cc2c(C(=O)NC[C@H](C)c3ccccc3)c(O)c(O)cc2c1O [Sabutoclax]: 27.4
CN1CCN(CCOc2cc(OC3CCOCC3)c3c(Nc4c(Cl)ccc5c4OCO5)ncnc3c2)CC1 [Saracatinib]: 28.7

###

# Tested on: U2OS
# experiment: drug GRADE (percent of response due to cell death) (% (0-100)); higher = more death-driven response
# applied.conditions: 72 h
measurement.kind: drug GRADE

CS(=O)(=O)N1CCN(Cc2cc3nc(-c4cccc5[nH]ncc45)nc(N4CCOCC4)c3s2)CC1 [Pictilisib]: 30.9
CO[C@H]1C[C@@H]2CC[C@@H](C)[C@@](O)(O2)C(=O)C(=O)N2CCCC[C@H]2C(=O)O[C@H]([C@H](C)C[C@@H]2CC[C@@H](OCCO)[C@H](OC)C2)CC(=O)[C@H](C)/C=C(\C)[C@@H](O)[C@@H](OC)C(=O)[C@H](C)C[C@H](C)/C=C/C=C/C=C/1C [Everolimus]: 0.964
Cc1cn(-c2cc(NC(=O)c3ccc(C)c(Nc4nccc(-c5cccnc5)n4)c3)cc(C(F)(F)F)c2)cn1 [Nilotinib]: 27.4
CC(C)C[C@H](NC(=O)[C@H](Cc1ccccc1)NC(=O)c1cnccn1)B(O)O [Bortezomib]: 17.4
C[C@@H]1O[C@@H](O[C@H]2C[C@@H](O)[C@]3(CO)[C@H]4[C@H](O)C[C@]5(C)[C@@H](C6=CC(=O)OC6)CC[C@]5(O)[C@@H]4CC[C@]3(O)C2)[C@H](O)[C@H](O)[C@H]1O [Ouabain]: 30.9
CC(C)NC[C@@H](C(=O)N1CCN(c2ncnc3c2[C@H](C)C[C@H]3O)CC1)c1ccc(Cl)cc1 [Ipatasertib]: 6.49
CC(C)Oc1ccc(-c2ccccc2)cc1-n1c(CN2CCN(C(=O)COc3ccc(Cl)cc3)CC2)nc2ccccc2c1=O [Erastin 2]: 24.1
CC[C@@H]1C(=O)N(C)c2cnc(Nc3ccc(C(=O)NC4CCN(C)CC4)cc3OC)nc2N1C1CCCC1 [BI2536]: 20.9
O=C(/C=C/c1cccc(S(=O)(=O)Nc2ccccc2)c1)NO [Belinostat]: 63.3
CC(=O)O[C@@]12CO[C@@H]1C[C@H](O)[C@@]1(C)C(=O)[C@H](O)C3=C(C)[C@@H](OC(=O)[C@H](O)[C@@H](NC(=O)OC(C)(C)C)c4ccccc4)C[C@@](O)([C@@H](OC(=O)c4ccccc4)[C@H]21)C3(C)C [Docetaxel]: 69.6
CCN1CCN(Cc2ccc(Nc3ncc(F)c(-c4cc(F)c5nc(C)n(C(C)C)c5c4)n3)nc2)CC1 [Abemaciclib]: 17.3
CC(C)[C@@H]1NC(=O)[C@H](C)OC(=O)[C@@H](C(C)C)NC(=O)[C@@H](C(C)C)OC(=O)[C@H](C(C)C)NC(=O)[C@H](C)OC(=O)[C@@H](C(C)C)NC(=O)[C@@H](C(C)C)OC(=O)[C@H](C(C)C)NC(=O)[C@H](C)OC(=O)[C@@H](C(C)C)NC(=O)[C@@H](C(C)C)OC1=O [Valinomycin]: 34.4
Cc1nc(NC(=O)N2CCC[C@H]2C(N)=O)sc1-c1ccnc(C(C)(C)C(F)(F)F)c1 [Alpelisib]: 9

###

# System: U2OS
# experiment: drug GRADE (percent of response due to cell death) (% (0-100)); higher = more death-driven response
# applied.conditions: 72 h
Would you please tag the item class 1 when its drug GRADE is 20 or above, and class 0 when it is below?

O=C1NC(=O)[C@@H](c2cn3c4c(cccc24)CCC3)[C@@H]1c1c[nH]c2ccccc12 [Tivantinib]: class 1
O=C(Nc1ccc([N+](=O)[O-])cc1Cl)c1cc(Cl)ccc1O [Nicolsamide]: class 1
CC[C@@H](C(=O)[C@@H](C)[C@@H](O)[C@H](C)[C@@H]1O[C@@H]([C@@H](CC)C(=O)O)CC[C@@H]1C)[C@H]1O[C@]2(C=C[C@@H](O)[C@]3(CC[C@@](C)([C@H]4CC[C@](O)(CC)[C@H](C)O4)O3)O2)[C@H](C)C[C@@H]1C: class 1
Cc1ccc(Nc2nccc(N(C)c3ccc4c(C)n(C)nc4c3)n2)cc1S(N)(=O)=O: class 1
Cc1nc(-c2cn3c(n2)-c2ccc(-c4cnn(C(C)(C)C(N)=O)c4)cc2OCC3)n(C(C)C)n1: class 1
CCc1cnn2c(NCc3ccc[n+]([O-])c3)cc(N3CCCC[C@H]3CCO)nc12: class 0
C=CCn1c(=O)c2cnc(Nc3ccc(N4CCN(C)CC4)cc3)nc2n1-c1cccc(C(C)(C)O)n1: class 1
CC[C@@H]1C(=O)N(C)c2cnc(Nc3ccc(C(=O)N[C@H]4CC[C@H](N5CCN(CC6CC6)CC5)CC4)cc3OC)nc2N1C(C)C: class 0
COC(=O)c1ccc2c(c1)NC(=O)/C2=C(\Nc1ccc(N(C)C(=O)CN2CCN(C)CC2)cc1)c1ccccc1: class 1
CC(=O)O[C@H]1C(=O)[C@@]2(C)[C@H]([C@H](OC(=O)c3ccccc3)[C@]3(O)C[C@H](OC(=O)[C@H](O)[C@@H](NC(=O)c4ccccc4)c4ccccc4)C(C)=C1C3(C)C)[C@]1(OC(C)=O)CO[C@@H]1C[C@@H]2O: class 1
CN(C)CC[C@H](CSc1ccccc1)Nc1ccc(S(=O)(=O)NC(=O)c2ccc(N3CCN(Cc4ccccc4-c4ccc(Cl)cc4)CC3)cc2)cc1[N+](=O)[O-]: class 1
CC[C@@]1(O)C(=O)OCc2c1cc1n(c2=O)Cc2cc3c(CN(C)C)c(O)ccc3nc2-1: class 0
Cc1[nH]c2ccccc2c1CCNCc1ccc(/C=C/C(=O)NO)cc1: class 1
COc1cccc2c1C(=O)c1c(O)c3c(c(O)c1C2=O)C[C@@](O)(C(=O)CO)C[C@@H]3O[C@H]1C[C@H](N)[C@H](O)[C@H](C)O1: class 0
CCC(=O)N1CCN(c2ccc(-n3c(=O)ccc4cnc5ccc(-c6cnc7ccccc7c6)cc5c43)cc2C(F)(F)F)CC1: class 1
O=C(CCCCCCC(=O)Nc1ccccc1)NO: class 1
O=C(c1cc(Cc2n[nH]c(=O)c3ccccc23)ccc1F)N1CCN(C(=O)C2CC2)CC1: class 0
O=C(NCCCNc1nc(Nc2cccc(NC(=O)N3CCCC3)c2)ncc1I)c1cccs1: class 1
CC(C)n1nc(-c2ccc3oc(N)nc3c2)c2c(N)ncnc21: class 0
COc1cc2nccc(Oc3ccc(NC(=O)C4(C(=O)Nc5ccc(F)cc5)CC4)cc3)c2cc1OC [Cabozantinib]: class 0
Nc1ccccc1NC(=O)c1ccc(CNC(=O)OCc2cccnc2)cc1: class 1
